assay: folding stability dG unfold (combined trypsin and chymotrypsin); higher = more stable
Assign folding stability dG unfold to each entry below.
Your answer is read as kcal/mol, so omit the unit and give the number.

Recorded folding stability dG unfold (sequence SAGGSAGGGGMTVTITVPVPSPTATYTVSFPSSSATASFTAEPGGPLTITVNAPSVTSITVTVSSAGGSAGG [r6_808_JUSTAS] ): 3.63

Just so you know, measured folding stability dG unfold for SAGGSAGGSAGMKVEEVPETPVWRFTITRGKKTTIVEVEVPPDEPPDPAEVAAELGYELESAGGSAGGSAGG [r11_1053_JUSTAS] came out at 1.89

get_value(item= SAGGSAWEFVKEIAKELQEKHPGYQVNVDVEPQRNPENDRRYIRIWIHVQDKNGEIRRTWEIMIPFSAGGSA [r15_1048_TrROS] , readout=folding stability dG unfold) returns 3.44

Data point: SAGGSAGGSGNSKLTATLTLEFYDPKTGKKIAKIELKPVITTLPNGTAKIDVEYKITFTNEDDSAGGSAGGS [r12_629_TrMRF] ; folding stability dG unfold = 3.39

Entry under test: SAGMTITVPGNVTVNVVITAYKFDENGNLIGPYTLVKPITVPENSTITIDLPNDEPNVVIIEIKAIPASAGG [r19_295_TrMRF] . Its folding stability dG unfold was 4.42

folding stability dG unfold for SAGGSAGGSAGMKNKNYKVYTYKINIIDPGYENTTIIVEPNPAKPKAKPITIPIIIVEPASAGGSAGGSAGG [r11_257_TrMRF] is 0.797

For SAGGSAGGSAGGGMTITTTSSVSESDGGLTLSTTTTAFDPVTGTWTPLTTTTTTLPPTTSAGGSAGGSAGGS [r10_51_JUSTAS] the sequence record lists folding stability dG unfold as 1.24

Given item SAGSYSVTADVTVHPDGTVDVTLTITTNGEDGTTETSTVLPLTLDLPPGTAVTVTVDPNNGTVTVTVEASAG [r5_179_JUSTAS] , the value recorded as its folding stability dG unfold is 3.89

Record SAGGSAGGSAGHMVKVKITKSKGGSSLPLEEKEIELDIDEEKLEELKEEAKKKGYTVEIESAGGSAGGSAGG [r17_18_JUSTAS] , field folding stability dG unfold: -0.0397

Query SAGGSAGGSIRIIFPVDNPEQAENIAEEIAERFGIQIEDIEVEQVPNGMYIVTFEVKIPPEMISAGGSAGGS [r12_577_TrROS] yields folding stability dG unfold of 2.38

folding stability dG unfold measured on SAPDPEQRKKNREQQEKNERMIPIQIHVYDKDGKWKPIGPVWFKDPDVPIDDLVPTFHDEGFDYVSISISAG [r14_318_TrROS] = 0.299

So for SAGGSAGGSAMSVTATVPEKPVTLTYIPPNTVTKTVIDPSTGTTTTTEVNLPPGVVPASLLLSAGGSAGGSA [r18_59_JUSTAS] , the logged folding stability dG unfold turned out to be 0.14
